experiment: Pharmacokinetics after iv and oral administration, P‐S difference method, Bcrp(−/−) mice; format: in vivo; settings: male, FVB Bcrp(−/−), mouse, systemic plasma (abdominal vein), po, 1 mg/kg, Bcrp(−/−) mice; p.o. (ciprofloxacin 1, nitrofurantoin 2, topotecan 1, sulfasalazine 5 mg/kg); systemic (sys) plasma
Structures can show the parent of a compound that is named as a salt.
Parameter: half-life (h)
Supply the numeric figure in h, leaving out any unit text.

half-life measured on CC[C@@]1(O)C(=O)OCc2c1cc1n(c2=O)Cc2cc3c(CN(C)C)c(O)ccc3nc2-1 [topotecan, Topotecan HCl] = 1.47

###

assay: Pharmacokinetics after iv and oral administration, P‐S difference method, wild‐type mice; format: in vivo; settings: male, FVB (wild-type), mouse, plasma (systemic, abdominal vein); WT mice; intravenous injection 1 mg/kg; read-out: extrapolated plasma concentration at zero time (C 0)
Parameter: C0 (µM)
Supply the numeric figure in µM, leaving out any unit text.

C0 measured on O=C(O)c1cc(/N=N/c2ccc(S(=O)(=O)Nc3ccccn3)cc2)ccc1O = 11.7

###

The compounds listed here are annotated with their Vd.
Test: Pharmacokinetics after iv and oral administration, P‐S difference method, wild‐type mice
Type: in vivo
Settings: male, FVB (wild-type), mouse, plasma (systemic, abdominal vein); wild‐type mice; iv 1 mg/kg; read-out: Vdss
Description: Male Mdr1a/1b(−/−) and Bcrp(−/−) mice, and WT mice of the same genetic background (FVB) were obtained from Taconic Farms (Germantown, NY, USA). […] Food and water were available ad libitum. […] After organic layer was evaporated at 60°C, the resultant residues were dissolved in a mobile phase. […] All drugs were analyzed by HPLC system (Shimadzu LC‐10AS pump, Shimadzu SIL‐10A autosampler) equipped with a reverse‐phase column (COSMOSIL 5C18‐AR‐II, 3.5‐μm […], 4.6 × 150 mm). […]
Where a name gives a salt, the structure may show the parent alone.
Supply the numeric figure in L/kg, leaving out any unit text.

Solved cases below.
CC[C@@]1(O)C(=O)OCc2c1cc1n(c2=O)Cc2cc3c(CN(C)C)c(O)ccc3nc2-1 [topotecan, Topotecan HCl] = 2.59
O=C(O)c1cc(/N=N/c2ccc(S(=O)(=O)Nc3ccccn3)cc2)ccc1O [sulfasalazine, Sulfasalazine] = 0.59

Now consider the entry below.
Vd measured on O=C1CN(/N=C/c2ccc([N+](=O)[O-])o2)C(=O)N1 [nitrofurantoin, Nitrofurantoin] = 1.94

###

test: Pharmacokinetics after iv and oral administration, P‐S difference method, Bcrp(−/−) mice; type: in vivo; settings: male, FVB Bcrp(−/−), mouse, portal vein plasma, po, Bcrp(−/−) mice; p.o. (ciprofloxacin 1, nitrofurantoin 2, topotecan 1, sulfasalazine 5 mg/kg); portal vein (pv) plasma; read-out: AUC 0→∞ (AUCpv)
Counter-ions that a name gives are not always drawn.
Parameter: AUC(0-inf) (µM·h)
Supply the numeric figure in µM·h, leaving out any unit text.

Solved cases below.
CC[C@@]1(O)C(=O)OCc2c1cc1n(c2=O)Cc2cc3c(CN(C)C)c(O)ccc3nc2-1 [topotecan, Topotecan HCl] = 1.51
O=C1CN(/N=C/c2ccc([N+](=O)[O-])o2)C(=O)N1 = 3.41

AUC(0-inf) measured on O=C(O)c1cc(/N=N/c2ccc(S(=O)(=O)Nc3ccccn3)cc2)ccc1O = 290

###

test: Pharmacokinetics after iv and oral administration, P‐S difference method, wild‐type mice; type: in vivo; conditions: male, FVB (wild-type), mouse, systemic plasma (abdominal vein), po, wild‐type mice; p.o. (ciprofloxacin 1, nitrofurantoin 2, topotecan 1, sulfasalazine 5 mg/kg); systemic (sys) plasma
Parameter: half-life
Write your answer as a measured quantity: the number, then the unit.

half-life measured on O=C1CN(/N=C/c2ccc([N+](=O)[O-])o2)C(=O)N1 = 55.8 min

half-life measured on O=C(O)c1cc(/N=N/c2ccc(S(=O)(=O)Nc3ccccn3)cc2)ccc1O = 60 min

Recorded values, source paper PMC6968775.
